# Experimental Target: NL20 human bronchial epithelial cells expressing human Z-AAT (Homo sapiens, UniProt P01009, E366K)
# Construct: expressed in transfected cells; host or cells: NL20 human bronchial epithelial cells (NL20-SI cell line), doxycycline added with compounds
# Sequence (P01009 25-418 E366K): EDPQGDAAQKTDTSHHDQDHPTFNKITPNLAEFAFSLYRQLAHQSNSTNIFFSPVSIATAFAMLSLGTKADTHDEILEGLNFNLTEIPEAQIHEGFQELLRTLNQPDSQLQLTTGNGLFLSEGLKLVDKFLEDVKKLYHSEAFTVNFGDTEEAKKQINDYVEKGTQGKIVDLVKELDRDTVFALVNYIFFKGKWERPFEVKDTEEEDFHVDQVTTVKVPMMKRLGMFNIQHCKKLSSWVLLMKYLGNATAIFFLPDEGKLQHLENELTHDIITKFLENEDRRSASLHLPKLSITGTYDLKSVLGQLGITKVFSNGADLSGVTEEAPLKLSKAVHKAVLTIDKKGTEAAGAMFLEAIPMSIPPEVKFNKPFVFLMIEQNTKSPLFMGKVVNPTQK
# Method: AAT Function Assay (MSD Assay NL20-SI Cell Line)
# Assay type: cell-based
# Settings: functionally active AAT in supernatant of NL20 cells expressing human Z-AAT, MSD readout; read-out: NL20 Func. (EC50)
Test Readout: EC50

CCCCCCc1c(-c2ccc(C(=O)O)cc2)c2cc3[nH]ncc3cc2n1-c1ccc(F)cc1 = > 1000 nM
Fc1ccc(-n2c(C3CCOCC3)c(-c3ccc4nccn4c3)c3cc4[nH]ncc4cc32)cc1 = 400 to 1000 nM
Cc1cc(-c2c(C3CCOCC3)n(-c3ccc(F)cc3)c3cc4cn[nH]c4cc23)cnc1C(=O)O = > 1000 nM
CC(C)(O)c1c(-c2ccc(C(=O)O)cc2)c2cc3[nH]ncc3cc2n1-c1ccc(F)cc1 = 400 to 1000 nM
O=C(O)c1ccc(-c2c(C3CCOCC3)n(-c3ccc(F)c(F)c3)c3cc4cn[nH]c4cc23)cc1F = 400 to 1000 nM
COCC(C)(C)c1c(-c2ccc(C(=O)O)cc2)c2cc3[nH]ncc3nc2n1-c1ccc(F)cc1 = > 1000 nM

Now look at this one.
Please look up its EC50: COCC(C)(C)c1c(-c2ccc(C(=O)O)nc2OC)c2cc3[nH]ncc3cc2n1-c1ccc(F)cc1
400 to 1000 nM

* * *

# Experimental Target: Z-AAT (Homo sapiens, UniProt P01009, E366K)
# Construct: Purified Z-AAT protein from human plasma; Vertex Cambridge Sample 4942)
# Sequence (P01009 25-418 E366K): as above
# Method: Biochemical Assay (Z-AAT Elastase Activity Assay)
# Settings: purified Z-AAT protein from human plasma and purified human neutrophil elastase
pIC50: −log10 of the molar value.
Test Readout: pIC50

Below, each entry is followed by its recorded pIC50 result.
O=C(O)c1ccc(-c2c(CC3CCOC3)n(-c3ccc(F)cc3)c3cc4cn[nH]c4cc23)cc1 (stereo not shown) = < 6.00
CC(C)(CS(C)(=O)=O)c1c(-c2ccc(P(C)(C)=O)nc2)c2cc3[nH]ncc3cc2n1-c1ccc(F)cc1 = < 4.52
COCC(C)(C)c1c(-c2ccc(C(=O)O)cc2)c2nc3[nH]ncc3cc2n1-c1ccc(F)cc1 = < 6.00
CC(C)(O)c1ccc(-c2c(C3CCOCC3)n(-c3ccc(F)cc3)c3cc4cn[nH]c4cc23)cc1 = < 4.52
OC(c1ccc(-c2c(C3CCOCC3)n(-c3ccc(F)cc3)c3cc4cn[nH]c4cc23)cc1)C(F)(F)F (single isomer, unassigned) [Compound 17] = < 4.52

Recorded pIC50 for O=C(NCCN1CCOC1=O)c1ccc(-c2c(C3CCOCC3)n(-c3ccc(F)cc3)c3cc4cn[nH]c4cc23)cc1 with Z-AAT (Homo sapiens, UniProt P01009, E366K), please?
< 4.52

Another molecule: O=C(O)c1ccc(-c2c(C3CCOCC3)n(-c3cccc(F)c3)c3cc4cn[nH]c4cc23)cc1
< 6.00

Another molecule: CC(C)c1c(-c2cc(C(=O)O)cc3[nH]ccc23)c2cc3[nH]ncc3cc2n1-c1ccc(F)cc1
< 6.00
